Assay: Solubility data for Compound 1 and the Antifungal
Type: physicochemical
Conditions: water
Recorded Metric: solubility

>>> test_value("O=C(c1ccc(-c2ccncc2)cc1)N1CCN(S(=O)(=O)c2ccc3cc(Cl)ccc3c2)CC1")
"< 5 µg/mL"

---

Assay: Solubility Data for Compound 2
Assay type: physicochemical
Conditions: aqueous buffer; pH 3 citrate buffer, pH 2.9
Recorded Metric: solubility

>>> test_value("O=C(c1ccc(-c2ccncc2)cc1)N1CCN(S(=O)(=O)c2cc3cc(Cl)ccc3[nH]2)CC1")
"193 µg/mL"
